# targetOrTestSystem: CHO-CHOP luciferase reporter, UPR activation, luminescence
# assayDetails: CHOP reporter induction, apoptotic UPR branch – CHO-CHOP cells, luciferase luminescence, confirmation (AID 489024);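 also: compounds added alone to reporter cells with no tunicamycin stress co-treatment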
Active and inactive are the calls of the source.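 The calls were made as follows: active = compounds whose mean EC50, the dose giving half the maximal reporter activation, is at or below a set limit; inactive = the rest.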
# output must be one of y = active, n = inactive

smilesnotation=Cc1cc(O)c(-c2cc(O)c(C)cc2O)cc1O targetortestsystem="CHO-CHOP luciferase reporter, UPR activation, luminescence" labelvalue=n
smilesnotation=Oc1ccc(/C=N/N2CCCCC2)cc1O targetortestsystem="CHO-CHOP luciferase reporter, UPR activation, luminescence" labelvalue=n

Please examine the following record next.
Query: Short answer needed: outcome of this test for "OCCNc1nc(Nc2ccc(Br)cc2)nc2ccccc12" ?
Response: y

meta.source: PubChem BioAssay AID489024
